Tested on: c-Src
Test: phosphorylation enrichment, bacterial display (enrichment ratio); higher = better substrate or ligand; peptides without Tyr show the background
Note to self: values exactly at 0.7 are class 1. So phosphorylation enrichment at or above 0.7 is class 1, below is class 0.

{"columns": ["seq string", "classification"],
 "data": [
  ["IRTDAYVPAMT [RPE65_Y89_R91P]", "class 0"]
]}

Query: Entry NREGVYTVSAP [TGFBI_Y537_F540S] : is its phosphorylation enrichment no less than 0.7?
Result: class 1

Query: Also check YADGVYQALEE [DUOX2_Y70]
Result: class 1

Query: What do we get for KSLFHYRQYSA [CPS1_Y1491] ?
Result: class 0

Query: And the next one, QCTSAYLLQPE [NANS_Y188_P189L] ?
Result: class 1

Query: What do we get for EIVHRYVELLD [AP1S3_Y87] ?
Result: class 0

Query: Same question for YKGKNYKPLDL [RPL35_Y78_K77N] please.
Result: class 0

Query: Okay, and PLDGEYFSLQI [TP53_Y327_T329S] ?
Result: class 1

Query: Do the same for LENSTYQFICV [CRB1_Y760_R764C_YF] please
Result: class 1

Query: Next record, please: CTTIHYNDMCN [TP53_Y234_Y236D]
Result: class 0

Query: Then this sequence: CPPKVYELMIA [ABL2_Y515_R519I]
Result: class 1

###

Target: FGFR3 (UniProt P22607)
Sequence (P22607 whole entry, looked up): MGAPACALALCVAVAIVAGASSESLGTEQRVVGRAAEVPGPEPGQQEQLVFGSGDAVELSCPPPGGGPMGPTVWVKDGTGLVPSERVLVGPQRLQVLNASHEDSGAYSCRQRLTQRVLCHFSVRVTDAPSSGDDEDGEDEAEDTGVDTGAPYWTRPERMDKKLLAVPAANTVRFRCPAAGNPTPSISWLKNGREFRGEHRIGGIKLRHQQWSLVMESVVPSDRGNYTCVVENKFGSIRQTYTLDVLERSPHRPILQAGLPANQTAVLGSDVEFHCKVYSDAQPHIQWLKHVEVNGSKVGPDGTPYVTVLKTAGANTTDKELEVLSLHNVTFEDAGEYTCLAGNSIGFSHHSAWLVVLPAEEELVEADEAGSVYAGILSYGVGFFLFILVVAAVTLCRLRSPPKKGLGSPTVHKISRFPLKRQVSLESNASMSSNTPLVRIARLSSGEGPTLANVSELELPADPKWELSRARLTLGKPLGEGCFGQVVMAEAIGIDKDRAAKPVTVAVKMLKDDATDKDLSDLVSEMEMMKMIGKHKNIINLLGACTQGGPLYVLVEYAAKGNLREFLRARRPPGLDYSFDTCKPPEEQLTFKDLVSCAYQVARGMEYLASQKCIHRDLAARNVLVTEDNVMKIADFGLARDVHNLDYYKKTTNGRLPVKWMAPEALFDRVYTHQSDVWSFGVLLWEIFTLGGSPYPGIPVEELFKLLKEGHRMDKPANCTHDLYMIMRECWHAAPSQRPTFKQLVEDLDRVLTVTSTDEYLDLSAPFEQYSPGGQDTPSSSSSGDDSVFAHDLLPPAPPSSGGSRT
Test: phosphorylation enrichment, bacterial display (enrichment ratio); higher = better substrate or ligand; peptides without Tyr show the background
Entry flag: true if phosphorylation enrichment reaches 0.7; false if it does not.

{"columns": ["seq string", "classification"],
 "data": [
  ["GVTLLCFGRFN [ADGRD1_Y85_Y85C_YF]", "true"]
]}

Query: Could you verify whether the entry YRVDCYKNFVA [FHL1_Y213_C209R] shows phosphorylation enrichment of no less than 0.7?
Result: true

###

Molecular target: MERTK (UniProt Q12866)
Sequence (Q12866 whole entry, looked up): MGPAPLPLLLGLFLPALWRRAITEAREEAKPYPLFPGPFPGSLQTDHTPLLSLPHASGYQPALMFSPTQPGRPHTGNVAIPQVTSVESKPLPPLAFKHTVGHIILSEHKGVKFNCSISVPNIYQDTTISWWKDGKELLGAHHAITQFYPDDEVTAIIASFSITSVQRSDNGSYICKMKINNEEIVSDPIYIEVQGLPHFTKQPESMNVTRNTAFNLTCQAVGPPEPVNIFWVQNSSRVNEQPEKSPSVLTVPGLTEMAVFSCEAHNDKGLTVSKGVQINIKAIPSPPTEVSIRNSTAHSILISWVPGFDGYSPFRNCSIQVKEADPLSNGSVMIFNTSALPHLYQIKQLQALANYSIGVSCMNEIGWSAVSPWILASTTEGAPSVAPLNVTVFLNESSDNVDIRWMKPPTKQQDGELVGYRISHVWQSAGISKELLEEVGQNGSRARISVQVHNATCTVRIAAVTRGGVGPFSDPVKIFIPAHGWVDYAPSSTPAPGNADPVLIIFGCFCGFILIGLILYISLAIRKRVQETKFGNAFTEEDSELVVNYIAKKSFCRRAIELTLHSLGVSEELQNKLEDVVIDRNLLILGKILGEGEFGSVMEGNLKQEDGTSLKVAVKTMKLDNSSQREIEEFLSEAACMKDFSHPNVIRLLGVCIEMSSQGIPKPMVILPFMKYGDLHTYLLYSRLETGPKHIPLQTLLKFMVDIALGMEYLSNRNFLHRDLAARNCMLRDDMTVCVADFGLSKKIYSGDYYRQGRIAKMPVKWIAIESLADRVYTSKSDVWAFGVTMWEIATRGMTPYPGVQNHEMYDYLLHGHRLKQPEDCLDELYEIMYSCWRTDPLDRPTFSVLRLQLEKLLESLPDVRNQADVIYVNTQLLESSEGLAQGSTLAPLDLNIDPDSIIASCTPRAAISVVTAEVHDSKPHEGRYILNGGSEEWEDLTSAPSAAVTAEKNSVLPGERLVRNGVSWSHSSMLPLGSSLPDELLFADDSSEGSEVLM
Experiment: phosphorylation enrichment, bacterial display (enrichment ratio); higher = better substrate or ligand; peptides without Tyr show the background
Entries and their phosphorylation enrichment values follow.
Keep it simple and answer with nothing but the number.

{"columns": ["seq string", "measurement target", "readout name", "numeric result"],
 "data": [
  ["IPPRRYFRSGV [STAMBP_Y36]", "MERTK (UniProt Q12866)", "phosphorylation enrichment", 0.608],
  ["IRTIDYRFTVW [IDS_Y497_YF]", "MERTK (UniProt Q12866)", "phosphorylation enrichment", 0.402],
  ["NSAFFYKTAEE [CCT6B_Y250_G247A]", "MERTK (UniProt Q12866)", "phosphorylation enrichment", 0.439],
  ["KSSDVYVSYDY [SORL1_Y136]", "MERTK (UniProt Q12866)", "phosphorylation enrichment", 1.97],
  ["QRRLVYFERGA [RYR1_Y245_G248R_YF]", "MERTK (UniProt Q12866)", "phosphorylation enrichment", 0.484]
]}

Query: Quick one: phosphorylation enrichment of TISPFYCQSLF [CRYAA_Y48_R49C_YF] ?
Result: 1.8

Query: Note, next up: VVKTVYSLQPS [KNSTRN_Y87_P92S]
Result: 1.42

Query: Ok, now VEKEKYVSYIS [JMJD1C_Y596_M591V]
Result: 0.444

Query: Repeat for the following sequence: SVTCTYPPALN [TP53_Y126_S127P]
Result: 0.477

Query: Can you handle YECKWYIPLTD [BCR_Y756_D752E] next?
Result: 0.922

Query: Now the same for WAMPAYNRSKL [WWOX_Y293_L291P]
Result: 0.257

Query: Moving on to FSMGCYEISLE [HMGCL_Y198_G203E_YF]
Result: 0.623

Query: Also, PLDGEYFSLQI [TP53_Y327_T329S] please.
Result: 0.737

Query: Also need LTMAPYSSVSL [FAM81A_Y24] , thanks.
Result: 0.556

###

Target: Grb2 SH2 (UniProt P62993)
Sequence (P62993 whole entry, looked up): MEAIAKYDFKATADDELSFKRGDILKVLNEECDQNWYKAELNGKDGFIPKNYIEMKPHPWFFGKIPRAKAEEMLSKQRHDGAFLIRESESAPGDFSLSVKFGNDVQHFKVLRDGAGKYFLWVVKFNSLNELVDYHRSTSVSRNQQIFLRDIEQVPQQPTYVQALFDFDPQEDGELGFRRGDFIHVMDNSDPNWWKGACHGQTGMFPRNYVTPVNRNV
Experiment: SH2 binding enrichment of the phosphorylated peptide, bacterial display (enrichment ratio); higher = better substrate or ligand; peptides without Tyr show the background
Measured SH2 binding enrichment by item
Just the number.

Would you please look over these solved cases?
{"columns": ["seq string", "SH2 binding enrichment"],
 "data": [
  ["AMCVCYDGVEV [ADAMTSL2_Y594_R593C]", 0.736],
  ["SWSTSYSGFRF [NKAPL_Y91_YF]", 1.13],
  ["AVLQLYIFVAT [CFTR_Y1014_P1013L]", 1],
  ["SYCYRYCCAAR [SUMF1_Y344_R345C]", 1.13],
  ["TLMNAYSSCSH [KIF11_Y231_R234C]", 0.808]
]}

Now consider the entry below.
Query: Missing value: SH2 binding enrichment, Grb2 SH2 (UniProt P62993), entry YADGVYQALEE [DUOX2_Y70] . Fill in?
Result: 0.806

###

Target: c-Src SH2
Assay: SH2 binding enrichment of the phosphorylated peptide, bacterial display (enrichment ratio); higher = better substrate or ligand; peptides without Tyr show the background
Lab note: anything with SH2 binding enrichment at or over 0.7 counts as y; the rest go in n.

Would you please look over these solved cases?
{"columns": ["seq string", "classification"],
 "data": [
  ["KLIETYSSKNY [PLP1_Y50_F51S]", "n"],
  ["QRRLVYFERGA [RYR1_Y245_G248R_YF]", "n"],
  ["ANYTEYVATRW [CDKL5_Y171]", "n"],
  ["RLLVVYPSTQR [HBB_Y36_W38S]", "y"],
  ["ERPGVHTNVVE [F11_Y608_Y608H]", "n"],
  ["VKPRRYRPGTV [H3-5_Y41_H39R]", "n"]
]}

Moving on to another sequence below.
Query: Is SH2 binding enrichment for GLIPAYHRVIM [NMNAT1_Y64] at or above 0.7?
Result: y

###

System: AncSZ
Test: phosphorylation enrichment, bacterial display (enrichment ratio); higher = better substrate or ligand; peptides without Tyr show the background
readout name: phosphorylation enrichment
Just the number, please.

Some sequences with recorded phosphorylation enrichment:
{"columns": ["seq string", "readout name", "numeric result"],
 "data": [
  ["FSEVRYVKEPF [HIPK4_Y170_YF]", "phosphorylation enrichment", 0.748],
  ["MTFMFYRENLR [NLRP14_Y443_V441M_YF]", "phosphorylation enrichment", 1.45],
  ["SFPSFYTSHVQ [NEFL_Y443_YF]", "phosphorylation enrichment", 0.874]
]}

Moving on to the next sequence.
Query: What value of phosphorylation enrichment on AncSZ does SSVKPYRVYCD [FGB_Y266] have?
Result: 0.659

###

Target: Fes (UniProt P07332)
Sequence (P07332 whole entry, looked up): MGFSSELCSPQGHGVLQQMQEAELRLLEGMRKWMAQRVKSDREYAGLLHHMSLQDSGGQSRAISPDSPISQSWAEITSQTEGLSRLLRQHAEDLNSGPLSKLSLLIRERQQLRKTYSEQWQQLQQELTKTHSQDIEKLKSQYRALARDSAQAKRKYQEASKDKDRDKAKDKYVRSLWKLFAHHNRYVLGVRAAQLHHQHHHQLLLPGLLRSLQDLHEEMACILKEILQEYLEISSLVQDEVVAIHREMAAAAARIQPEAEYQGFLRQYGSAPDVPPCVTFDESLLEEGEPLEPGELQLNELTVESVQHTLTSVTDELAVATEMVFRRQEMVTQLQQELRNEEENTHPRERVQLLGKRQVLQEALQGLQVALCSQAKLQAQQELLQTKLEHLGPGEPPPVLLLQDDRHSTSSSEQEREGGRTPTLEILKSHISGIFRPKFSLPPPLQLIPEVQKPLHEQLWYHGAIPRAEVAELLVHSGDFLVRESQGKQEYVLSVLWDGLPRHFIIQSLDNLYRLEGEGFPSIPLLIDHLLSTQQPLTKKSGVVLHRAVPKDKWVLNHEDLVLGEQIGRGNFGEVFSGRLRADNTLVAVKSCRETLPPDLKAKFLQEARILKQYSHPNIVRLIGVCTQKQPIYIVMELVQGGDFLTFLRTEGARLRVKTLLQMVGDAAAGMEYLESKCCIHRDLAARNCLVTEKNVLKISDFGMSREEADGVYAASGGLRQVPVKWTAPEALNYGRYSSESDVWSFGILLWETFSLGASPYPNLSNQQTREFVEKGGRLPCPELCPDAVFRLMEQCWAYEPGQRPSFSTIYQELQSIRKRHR
Assay: phosphorylation enrichment, bacterial display (enrichment ratio); higher = better substrate or ligand; peptides without Tyr show the background
Kind request: treat 0.8 as inclusive, so phosphorylation enrichment at 0.8 or higher is 1, anything lower is -1.

{"columns": ["seq string", "measurement target", "classification"],
 "data": [
  ["PGVNYYFRVSA", "Fes (UniProt P07332)", 1],
  ["LQLLGDRPVYS [CHST6_Y358_Y358D]", "Fes (UniProt P07332)", 1],
  ["QMVGMYASSSM [AVPR2_Y124_Y128S]", "Fes (UniProt P07332)", -1],
  ["PVQAAYQKVVA [HBB_Y131]", "Fes (UniProt P07332)", -1],
  ["QTPVLYAMLFH [MPZ_Y220_D224Y_YF]", "Fes (UniProt P07332)", 1]
]}

Query: Quick check, phosphorylation enrichment >= 0.8? WDLTDYLMKIL [ACTB_Y188_R183W]
Result: 1

###

Entries annotated with measured phosphorylation enrichment
Molecular target: Jak2 (UniProt O60674)
Sequence (O60674 whole entry, looked up): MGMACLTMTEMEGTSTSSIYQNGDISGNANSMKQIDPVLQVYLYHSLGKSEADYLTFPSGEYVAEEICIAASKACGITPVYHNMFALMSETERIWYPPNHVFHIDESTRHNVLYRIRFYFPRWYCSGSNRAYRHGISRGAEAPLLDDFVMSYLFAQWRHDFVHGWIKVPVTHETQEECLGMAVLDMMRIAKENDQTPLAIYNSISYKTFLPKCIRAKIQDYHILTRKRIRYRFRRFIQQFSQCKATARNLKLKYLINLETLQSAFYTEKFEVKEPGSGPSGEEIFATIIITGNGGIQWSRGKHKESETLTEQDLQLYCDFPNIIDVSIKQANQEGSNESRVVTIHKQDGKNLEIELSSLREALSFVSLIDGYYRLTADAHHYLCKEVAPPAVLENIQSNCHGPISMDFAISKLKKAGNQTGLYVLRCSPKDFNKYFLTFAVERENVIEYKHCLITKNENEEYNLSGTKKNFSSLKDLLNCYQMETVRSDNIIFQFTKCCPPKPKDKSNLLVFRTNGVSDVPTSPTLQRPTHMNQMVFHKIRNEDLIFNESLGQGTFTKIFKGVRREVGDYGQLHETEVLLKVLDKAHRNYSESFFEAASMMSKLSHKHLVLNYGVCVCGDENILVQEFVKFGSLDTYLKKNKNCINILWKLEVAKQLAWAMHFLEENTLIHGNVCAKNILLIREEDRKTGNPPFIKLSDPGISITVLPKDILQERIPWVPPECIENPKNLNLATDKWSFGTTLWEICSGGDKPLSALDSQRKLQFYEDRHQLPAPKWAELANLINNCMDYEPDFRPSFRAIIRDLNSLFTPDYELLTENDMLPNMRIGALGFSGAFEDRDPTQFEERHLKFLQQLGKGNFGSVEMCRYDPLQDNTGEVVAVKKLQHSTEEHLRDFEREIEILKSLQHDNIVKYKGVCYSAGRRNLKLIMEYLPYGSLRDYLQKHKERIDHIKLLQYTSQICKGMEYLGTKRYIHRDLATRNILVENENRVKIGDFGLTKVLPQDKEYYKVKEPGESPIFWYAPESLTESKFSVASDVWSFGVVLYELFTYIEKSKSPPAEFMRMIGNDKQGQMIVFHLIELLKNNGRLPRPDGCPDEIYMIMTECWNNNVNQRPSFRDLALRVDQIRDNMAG
Assay: phosphorylation enrichment, bacterial display (enrichment ratio); higher = better substrate or ligand; peptides without Tyr show the background
# answer = number (no unit)

Examples with answers:
{"columns": ["seq string", "phosphorylation enrichment"],
 "data": [
  ["TLMNAYSSCSH [KIF11_Y231_R234C]", 0.642],
  ["SVMAEYGLFRA [VSX2_Y219_G223R_YF]", 0.505],
  ["YKIYLYTLNDN [FN1_Y1975]", 1.4],
  ["GARGRYVMGGP [TNK1_Y277]", 0.457],
  ["CTTIHFNFMCN [TP53_Y234_Y234F_YF]", 1.33],
  ["NKVKFYIPYMN [NCR1_Y84_D87Y]", 0.893],
  ["FADIAYNFRDG [PAH_Y166_H170D_YF]", 0.654],
  ["NSAFFYKTAEE [CCT6B_Y250_G247A]", 0.927]
]}

Query: Value wanted: phosphorylation enrichment (Jak2 (UniProt O60674)) of entry VKYLGYPPPEI [KDR_Y357_A352V]
Result: 0.489

Query: Now consider PLKFLYPNIDK [STAT1_Y668_YF] and answer again.
Result: 1.65

Query: Now consider HILFRYPKEFQ [IDS_Y234_P231L] and answer again.
Result: 1.59

Query: Again, but for EQLLDYTRTVQ [INPP5E_Y439_R435Q]
Result: 0.976

Query: Moving on to DDEVFYSPRSL [OTC_Y317]
Result: 1.36

Query: Please answer likewise for PLCPDYQEPSR [DDR2_Y481_R478C]
Result: 1.23

// provenance: the supplement of paper PMC10065799
